# Test system: DNA topoisomerase I (Yersinia pestis CO92)
# Assay protocol: Yersinia pestis topoisomerase I inhibitors, primary screen, biochemical, cleavage product accumulation, plate reader, single point (AID 504884)
# Conditions: Y. pestis Topo-I cleavage product accumulation, at 10 µM, active compounds read high
The whole screen tested about 360,000 compounds, of which about 230 (0.064%) were called active. The entries come from a sample that favours actives as a whole.
Let's look at some compounds and their measured activity.
Express it in %; write the number only.

Below: 2 compounds and their reported activity.
[[record]]
compound = "COc1ccc(-n2nc(C(=O)NCC(=O)Nc3cccc(C)n3)c3ccccc3c2=O)cc1"
measured_attribute = "activity"
recorded_number = 15.2

[[record]]
compound = "CC(C)C(NC(=O)OCc1ccccc1)C(=O)OCC(=O)N1C(C)CCCC1C (stereo not given)"
measured_attribute = "activity"
recorded_number = 15.6


Request: Find the measured activity of "CCN1CCc2nc(NC(=O)c3cc(F)c(F)cc3Cl)sc2C1" with DNA topoisomerase I (Yersinia pestis CO92) as test system.
Result: 6.77

Request: Find the measured activity of "CC(C)[C@H](NC(=O)OCc1ccccc1)C(=O)OCc1ccccc1" with DNA topoisomerase I (Yersinia pestis CO92) as test system.
Result: 58.9

Request: Find the measured activity of "CC(=O)Nc1ccc(Nc2ncnc3c2nnn3Cc2ccccc2Cl)cc1" with DNA topoisomerase I (Yersinia pestis CO92) as test system.
Result: 2.24

* * *

Let's look at some compounds and their measured activity.
# Tested on: DNA topoisomerase I (Yersinia pestis CO92)
# Assay protocol: Yersinia pestis topoisomerase I inhibitors, primary screen, biochemical, cleavage product accumulation, plate reader, single point (AID 504884)
# Conditions: Y. pestis Topo-I cleavage product accumulation, at 10 µM, active compounds read high
The campaign covered roughly 360,000 compounds. About 230 (0.064%) were called active. Many of the other results were omitted from the sample, so actives are more common in it than they were.
Express it in %; write the number only.

Below: 5 compounds and their reported activity.
[[record]]
compound = "CN(C)/C=C(/C(=O)c1ccccc1Cl)S(C)(=O)=O"
recorded_number = 3.93

[[record]]
compound = "COc1ccc(/C(=N\\O)c2nccc3cc(OC)c(OC)cc23)cc1OC"
recorded_number = 6.19

[[record]]
compound = "O=C(CSc1nc2cc3c(cc2c(=O)n1CCC1=CCCCC1)OCO3)NCc1ccco1"
recorded_number = -0.243

[[record]]
compound = "COc1ccc(N(Cc2cc3ccc(C)cc3[nH]c2=O)S(=O)(=O)c2ccccc2)cc1"
recorded_number = 29.4

[[record]]
compound = "CCCCCN(C(=O)CCC(=O)OCCOc1ccc(OC)cc1)c1c(N)n(CCCC)c(=O)[nH]c1=O"
recorded_number = 20.2


Request: Give the reported activity for this compound. CC1(Oc2ccccc2-c2ccno2)CCN(Cc2ccc(-c3ccccc3)o2)C1 (stereo not given)
Result: 24

Request: Give the reported activity for this compound. CCOc1ccc(S(=O)(=O)N2CCCCC2)cc1NC(=O)CN1CCCC1c1cccs1 (stereo not given)
Result: 9.92

Request: Give the reported activity for this compound. "COc1cccc(N(CC(=O)NCCSc2ccccn2)S(C)(=O)=O)c1"
Result: -7.24

Request: Give the reported activity for this compound. COCC(C)n1c(C)cc(C(=O)COc2ccc(C)nc2[N+](=O)[O-])c1C (stereo not given)
Result: 8.7

Request: Give the reported activity for this compound. "COc1ccccc1-c1n[nH]c2c1[C@H](C)CC[C@H]2C(C)C"
Result: 29.7
